# system: Replicase polyprotein 1ab (Severe acute respiratory syndrome coronavirus 2, UniProt P0DTD1)
# test-description: Inhibition of N7-MTase activity of SARS-CoV-2 N-terminus hexahistidine tag nsp14 expressed in Escherichia coli C2566 using [3H]SAM as substrate incubated for 30 mins in presence of mGpppAC4 synthetic RNA by radioactive filter binding assay
result-type: log10 of IC50 (log10 of the value in µM)

mol-smiles: CCN(C[C@H]1O[C@@H](n2cnc3c(N)ncnc32)[C@H](O)[C@@H]1O)S(=O)(=O)c1cccc([N+](=O)[O-])c1
result-type: log10 of IC50
recorded-result: -0.29

mol-smiles: Cc1ccc(S(=O)(=O)NC[C@H]2O[C@@H](n3cnc4c(N)ncnc43)[C@H](O)[C@@H]2O)cc1[N+](=O)[O-]
result-type: log10 of IC50
recorded-result: -0.47

mol-smiles: COc1ccc(S(=O)(=O)NC[C@H]2O[C@@H](n3cnc4c(N)ncnc43)[C@H](O)[C@@H]2O)c([N+](=O)[O-])c1
result-type: log10 of IC50
recorded-result: 0.15

mol-smiles: CCN(C[C@H]1O[C@@H](n2cnc3c(N)ncnc32)[C@H](O)[C@@H]1O)S(=O)(=O)c1ccc(Br)c([N+](=O)[O-])c1
result-type: log10 of IC50
recorded-result: -1.10

mol-smiles: Nc1ncnc2c1ncn2[C@@H]1O[C@H](CNS(=O)(=O)c2ccc(Cl)c(Cl)c2)[C@@H](O)[C@H]1O
result-type: log10 of IC50
recorded-result: -0.32

mol-smiles: Nc1ncnc2c1ncn2[C@@H]1O[C@H](CNS(=O)(=O)c2ccc([N+](=O)[O-])cc2)[C@@H](O)[C@H]1O
result-type: log10 of IC50
recorded-result: 1.15

mol-smiles: CCN(C[C@H]1O[C@@H](n2cnc3c(N)ncnc32)[C@H](O)[C@@H]1O)S(=O)(=O)c1ccc(OC)c([N+](=O)[O-])c1
result-type: log10 of IC50
recorded-result: -1.36
